Source listed as paper PMC7497679.

- tested_system: XIAP BIR3 domain (Homo sapiens, UniProt P98170)
- Construct: fluorescent probe 4 and the XIAP BIR3 domain (Sino Biological, Beijing, China) were used for all measurements
- Sequence (P98170 252-356 limits assumed): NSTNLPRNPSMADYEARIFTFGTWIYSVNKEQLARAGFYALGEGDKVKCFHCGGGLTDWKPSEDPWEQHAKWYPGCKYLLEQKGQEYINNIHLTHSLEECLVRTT
- protocol_description: Fluorescence polarization inhibition (competition) assay
- applied_conditions: XIAP BIR3 50 nM, fluorescent probe 4 2 nM
- Procedure: The fluorescence polarization assay was performed at r.t. in Corning 384-well black, polystyrene flat bottom plates (Corning, NY, USA) on a Synergy H4 Hybrid Reader (BioTek, Bad Friedrichshall, Germany). For fluorescence polarization measurements, (milipolarization units, mP) 484/20 nm excitation and 528/20 nm emission filters were selected. […] The obtained fluorescence polarization assay data were analyzed with Prism 5.0 Software (GraphPad Software, San Diego, ca.). […]
Ki listing for selected compounds.
The figure you give is taken to be in µM; do not add the unit.

1) CN[C@@H](C)C(=O)N[C@H](C(=O)N1CCC[C@H]1C(=O)NC(C)P(=O)(Oc1ccc(C(C)(C)C)cc1)Oc1ccc(C(C)(C)C)cc1)C1CCCCC1 (stereo partly drawn) | 13.3

## Input Indicate the recorded Ki value for this compound: CCc1ccc(OP(=O)(Oc2ccc(CC)cc2)C(C)NC(=O)[C@@H]2CCCN2C(=O)[C@@H](NC(=O)[C@H](C)NC)C2CCCCC2)cc1 (stereo partly drawn)
## Output 10.2

## Input Supply recorded Ki for CN[C@@H](C)C(=O)N[C@H](C(=O)N1CCC[C@H]1C(=O)NC(C)P(=O)(Oc1ccc(C(C)C)cc1)Oc1ccc(C(C)C)cc1)C(C)C (stereo partly drawn) here.
## Output 10.9

## Input Consider the compound CN[C@@H](C)C(=O)N[C@H](C(=O)N1CCC[C@H]1C(=O)NC(C)P(=O)(c1ccc(C)cc1)c1ccc(C)cc1)C1CCCCC1 (stereo partly drawn) . State its measured Ki.
## Output 9.55

## Input Please indicate Ki recorded for `CN[C@@H](C)C(=O)N[C@H](C(=O)N1CCC[C@H]1C(=O)NCP(=O)(c1ccccc1C)c1ccccc1C)C(C)C`
## Output 14.5

## Input Note down Ki recorded for `CN[C@@H](C)C(=O)N[C@H](C(=O)N1CCC[C@H]1C(=O)NCP(=O)(c1ccccc1)c1ccccc1)C1CCCCC1`
## Output 13

## Input Look up and state reported Ki for CCC(C)C(NC(=O)[C@@H]1CCCN1C(=O)[C@@H](NC(=O)[C@H](C)NC)C1CCCCC1)P(=O)(Oc1ccccc1)Oc1ccccc1 (stereo partly drawn)
## Output 8.05

## Input Provide one value: measured Ki of `CN[C@@H](C)C(=O)N[C@H](C(=O)N1CCC[C@H]1C(=O)NCP(=O)(c1ccccc1)c1ccccc1)C(C)C`
## Output 14.5

## Input For CN[C@@H](C)C(=O)N[C@H](C(=O)N1CCC[C@H]1C(=O)NC(C)P(=O)(Oc1ccc(C(C)C)cc1)Oc1ccc(C(C)C)cc1)C1CCCCC1 (stereo partly drawn) , write its Ki.
## Output 9.84

## Input Report Ki for CN[C@@H](C)C(=O)N[C@H](C(=O)N1CCC[C@H]1C(=O)NC(C)P(=O)(Oc1ccc(C(C)(C)C)cc1)Oc1ccc(C(C)(C)C)cc1)C(C)C (stereo partly drawn)
## Output 10.5

## Input Supply Ki value. Item: CN[C@@H](C)C(=O)N[C@H](C(=O)N1CCC[C@H]1C(=O)NC(C(C)C)P(=O)(Oc1ccccc1)Oc1ccccc1)C1CCCCC1 (stereo partly drawn)
## Output 11.8

## Input Read off the recorded Ki for CN[C@@H](C)C(=O)N[C@H](C(=O)N1CCC[C@H]1C(=O)NC(C)P(=O)(c1cc(C)cc(C)c1)c1cc(C)cc(C)c1)C(C)C (stereo partly drawn)
## Output 16.1

* * *

- tested_system: XIAP BIR3 domain (Homo sapiens, UniProt P98170)
- Construct: fluorescent probe 4 and the XIAP BIR3 domain (Sino Biological, Beijing, China) were used for all measurements; purchased Sino Biological, Beijing, China
- protocol_description: Fluorescence polarization inhibition (competition) assay
- Assay type: binding
- applied_conditions: 0.5 h; antagonist 50 µM; inhibition of protein-probe interaction
- Method: The fluorescence polarization assay was performed at r.t. in Corning 384-well black, polystyrene flat bottom plates (Corning, NY, USA) on a Synergy H4 Hybrid Reader (BioTek, Bad Friedrichshall, Germany). For fluorescence polarization measurements, (milipolarization units, mP) 484/20 nm excitation and 528/20 nm emission filters were selected. […] The obtained fluorescence polarization assay data were analyzed with Prism 5.0 Software (GraphPad Software, San Diego, ca.). […]
inhibition at 50 µM values by entry
Provide the reading as a plain figure in %.

Answered cases to consult:
1) CCC(NC(=O)[C@@H]1CCCN1C(=O)[C@@H](NC(=O)[C@H](C)NC)C1CCCCC1)P(=O)(Oc1ccccc1)Oc1ccccc1 (some centres unmarked) | 71
2) CN[C@@H](C)C(=O)N[C@H](C(=O)N1CCC[C@H]1C(=O)NCP(=O)(c1ccccc1C)c1ccccc1C)C(C)C | 62
3) CN[C@@H](C)C(=O)N[C@H](C(=O)N1CCC[C@H]1C(=O)NC(CCSC)P(=O)(Oc1ccccc1)Oc1ccccc1)C1CCCCC1 (some centres unmarked) | 73.8
4) CN[C@@H](C)C(=O)N[C@H](C(=O)N1CCC[C@H]1C(=O)NC(C(C)C)P(=O)(Oc1ccccc1)Oc1ccccc1)C1CCCCC1 (some centres unmarked) | 70.5
5) CN[C@@H](C)C(=O)N[C@H](C(=O)N1CCC[C@H]1C(=O)NC(CCc1ccccc1)P(=O)(Oc1ccccc1)Oc1ccccc1)C(C)C (some centres unmarked) | 85.4

## Input For the compound `CN[C@@H](C)C(=O)N[C@H](C(=O)N1CCC[C@H]1C(=O)NCP(=O)(c1cc(C)cc(C)c1)c1cc(C)cc(C)c1)C(C)C` , give its reported inhibition at 50 µM.
## Output 50

## Input Identify measured inhibition at 50 µM associated with CCC(C)C(NC(=O)[C@@H]1CCCN1C(=O)[C@@H](NC(=O)[C@H](C)NC)C1CCCCC1)P(=O)(Oc1ccccc1)Oc1ccccc1 (some centres unmarked)
## Output 81.4

## Input Find the measured inhibition at 50 µM of CN[C@@H](C)C(=O)N[C@H](C(=O)N1CCC[C@H]1C(=O)NC(C)P(=O)(Oc1ccccc1)Oc1ccccc1)C(C)C (some centres unmarked) and report it.
## Output 62.1

## Input Respond only with inhibition at 50 µM recorded for CN[C@@H](C)C(=O)N[C@H](C(=O)N1CCC[C@H]1C(=O)NC(C)P(=O)(c1ccc(C)cc1)c1ccc(C)cc1)C1CCCCC1 (some centres unmarked)
## Output 74

## Input Let me know recorded inhibition at 50 µM for CN[C@@H](C)C(=O)N[C@H](C(=O)N1CCC[C@H]1C(=O)NC(C)P(=O)(Oc1ccc(C(C)C)cc1)Oc1ccc(C(C)C)cc1)C(C)C (some centres unmarked) , thanks.
## Output 81.8

* * *

Below: a set of entries, each annotated with reported EC50.
- tested_system: XIAP BIR3 domain (Homo sapiens)
- Construct: fluorescent probe 4 and the XIAP BIR3 domain (Sino Biological, Beijing, China) were used for all measurements; purchased Sino Biological, Beijing, China
- protocol_description: Fluorescence polarization inhibition (competition) assay
- Assay type: binding
- applied_conditions: XIAP BIR3 50 nM, fluorescent probe 4 2 nM; read-out: EC50
Provide the reading as a plain figure in µM.

## Input Using the record for `CN[C@@H](C)C(=O)N[C@H](C(=O)N1CCC[C@H]1C(=O)NCP(=O)(c1cc(C)cc(C)c1)c1cc(C)cc(C)c1)C1CCCCC1` , state its measured EC50.
## Output 22.5

## Input State its EC50 for this compound: CCC(NC(=O)[C@@H]1CCCN1C(=O)[C@@H](NC(=O)[C@H](C)NC)C(C)C)P(=O)(Oc1ccccc1)Oc1ccccc1 (stereo partly drawn)
## Output 38

## Input # return recorded EC50 for entry CN[C@@H](C)C(=O)N[C@H](C(=O)N1CCC[C@H]1C(=O)NC(C)P(=O)(Oc1ccc(C(C)(C)C)cc1)Oc1ccc(C(C)(C)C)cc1)C1CCCCC1 (stereo partly drawn)
## Output 26.8

* * *

- tested_system: XIAP BIR3 domain (Homo sapiens, UniProt P98170)
- Construct: fluorescent probe 4 and the XIAP BIR3 domain (Sino Biological, Beijing, China) were used for all measurements; purchased Sino Biological, Beijing, China
- protocol_description: Fluorescence polarization inhibition (competition) assay
- Type: binding
- applied_conditions: XIAP BIR3 50 nM, fluorescent probe 4 2 nM; read-out: log EC50 (converted)
quantity: EC50 (µM)
Write down the numeric answer in µM and omit the unit.

Consider the worked cases shown below.
1) CN[C@@H](C)C(=O)N[C@H](C(=O)N1CCC[C@H]1C(=O)NCP(=O)(c1ccc(C)cc1)c1ccc(C)cc1)C(C)C | 30.8
2) CN[C@@H](C)C(=O)N[C@H](C(=O)N1CCC[C@H]1C(=O)NCP(=O)(c1ccccc1C)c1ccccc1C)C(C)C | 29.2

## Input Find the measured EC50 of `CN[C@@H](C)C(=O)N[C@H](C(=O)N1CCC[C@H]1C(=O)NCP(=O)(c1ccccc1)c1ccccc1)C(C)C` and report it.
## Output 29.4

## Input Provide measured EC50 value, entry: CN[C@@H](C)C(=O)N[C@H](C(=O)N1CCC[C@H]1C(=O)NC(C)P(=O)(Oc1ccccc1)Oc1ccccc1)C(C)C (stereo partly shown)
## Output 31.8

## Input Recall and state the measured EC50 for CN[C@@H](C)C(=O)N[C@H](C(=O)N1CCC[C@H]1C(=O)NC(C)P(=O)(Oc1ccccc1)Oc1ccccc1)C1CCCCC1 (stereo partly shown) .
## Output 30.3

## Input Specify reported EC50 for the compound shown: `CN[C@@H](C)C(=O)N[C@H](C(=O)N1CCC[C@H]1C(=O)NCP(=O)(c1ccc(C)cc1)c1ccc(C)cc1)C1CCCCC1`
## Output 40.4

## Input Specify EC50 for `CN[C@@H](C)C(=O)N[C@H](C(=O)N1CCC[C@H]1C(=O)NCP(=O)(C(C)(C)C)C(C)(C)C)C1CCCCC1` and stop.
## Output 19.9
